SUBJECT OF TEST: Vasopressin V1a receptor (Homo sapiens, UniProt P37288)
Sequence (P37288 whole entry): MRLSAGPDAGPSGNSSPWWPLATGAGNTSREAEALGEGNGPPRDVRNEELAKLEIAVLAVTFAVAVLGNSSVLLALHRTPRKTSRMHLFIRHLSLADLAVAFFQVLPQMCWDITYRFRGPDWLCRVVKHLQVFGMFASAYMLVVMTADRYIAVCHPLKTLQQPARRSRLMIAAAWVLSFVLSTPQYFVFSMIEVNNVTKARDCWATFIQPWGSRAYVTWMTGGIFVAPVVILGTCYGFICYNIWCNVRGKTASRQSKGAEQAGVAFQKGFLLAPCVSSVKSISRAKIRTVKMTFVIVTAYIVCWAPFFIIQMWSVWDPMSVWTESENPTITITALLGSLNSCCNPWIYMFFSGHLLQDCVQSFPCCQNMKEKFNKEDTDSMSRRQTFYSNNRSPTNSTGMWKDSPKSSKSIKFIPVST
TEST PROTOCOL: Binding affinity against human vasopressin V1a receptor was determined by using plasma membranes from CHO cells stably transfected with VP/OT receptors
RESULT TYPE: Ki (nM)
Numbers only, in nM.

COMPOUND	SUBJECT OF TEST	SCALE UNIT	ASSAY VALUE
NC(=O)CNC(=O)[C@H](CCCN=C(N)N)NC(=O)[C@@H]1CCCN1C(=O)[C@@H]1CSSCCC(=O)N[C@@H](Cc2ccc(O)cc2)C(=O)N[C@@H](Cc2ccccc2)C(=O)N[C@@H](Cc2cccs2)C(=O)N[C@@H](CC(N)=O)C(=O)N1 (stereo in doubt)	Vasopressin V1a receptor (Homo sapiens, UniProt P37288)	nM	63.3

Now for a further compound.
I looked up C[C@@H](O)[C@@H]1NC(=O)[C@H](Cc2ccccc2)NC(=O)[C@H](Cc2ccc(O)cc2)NC(=O)CCSSC[C@@H](C(=O)N2CCC[C@H]2C(=O)N[C@@H](CCCN=C(N)N)C(=O)NCC(N)=O)NC(=O)[C@H](CC(N)=O)NC1=O (stereo in doubt) and its Ki for Vasopressin V1a receptor (Homo sapiens, UniProt P37288) was 2.9

* * *

Provide the reported pKi of each item.
SUBJECT OF TEST: Vasopressin V2 receptor (Homo sapiens, UniProt P30518)
Sequence (P30518 whole entry): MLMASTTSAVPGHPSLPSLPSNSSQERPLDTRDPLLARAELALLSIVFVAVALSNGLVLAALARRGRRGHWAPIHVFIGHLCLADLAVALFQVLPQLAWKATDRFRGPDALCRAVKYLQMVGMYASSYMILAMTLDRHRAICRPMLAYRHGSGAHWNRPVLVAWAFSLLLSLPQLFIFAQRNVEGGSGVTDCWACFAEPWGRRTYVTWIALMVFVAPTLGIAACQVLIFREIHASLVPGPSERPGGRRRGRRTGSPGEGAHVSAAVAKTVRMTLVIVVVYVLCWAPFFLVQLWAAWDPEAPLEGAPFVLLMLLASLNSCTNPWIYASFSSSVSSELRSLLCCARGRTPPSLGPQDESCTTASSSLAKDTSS
TEST PROTOCOL: Binding affinity against human vasopressin V2 receptor was determined by using plasma membranes from CHO cells stably transfected with VP/OT receptors
Answers are plain numbers, as −log10 of the molar value.

These recorded examples may help you get a feel for the data.
COMPOUND	RESULT TYPE	ASSAY VALUE
NC[C@@H]1NC(=O)[C@H](Cc2ccccc2)NC(=O)[C@H](Cc2ccc(O)cc2)NC(=O)CCSSC[C@@H](C(=O)N2CCC[C@H]2C(=O)N[C@@H](CCCN=C(N)N)C(=O)NCC(N)=O)NC(=O)[C@H](CC(N)=O)NC1=O (stereo in doubt)	pKi	7.43
CC[C@@H]1NC(=O)[C@H](Cc2ccccc2)NC(=O)[C@H](Cc2ccc(O)cc2)NC(=O)CCSSC[C@@H](C(=O)N2CCC[C@H]2C(=O)N[C@@H](CCCN=C(N)N)C(=O)NCC(N)=O)NC(=O)[C@H](CC(N)=O)NC1=O (stereo in doubt)	pKi	8.68
NC(=O)CNC(=O)[C@H](CCCN=C(N)N)NC(=O)[C@@H]1CCCN1C(=O)[C@@H]1CSSCCC(=O)N[C@@H](Cc2ccc(O)cc2)C(=O)N[C@@H](Cc2ccccc2)C(=O)N[C@@H](CCC(=O)O)C(=O)N[C@@H](CC(N)=O)C(=O)N1 (stereo in doubt)	pKi	5.96

Here is another compound to look at.
Just so you know, measured pKi for NC(=O)CNC(=O)[C@H](CCCN=C(N)N)NC(=O)[C@@H]1CCCN1C(=O)[C@@H]1CSSCCC(=O)N[C@@H](Cc2ccc(O)cc2)C(=O)N[C@@H](Cc2ccccc2)C(=O)N[C@@H](Cc2c[nH]c3ccccc23)C(=O)N[C@@H](CC(N)=O)C(=O)N1 (stereo in doubt) came out at 7.10

* * *

SUBJECT OF TEST: Vasopressin V2 receptor (Homo sapiens)
TEST PROTOCOL: Binding affinity against human vasopressin V2 receptor was determined by using plasma membranes from CHO cells stably transfected with VP/OT receptors
RESULT TYPE: pKi
Numbers only, as −log10 of the molar value.

Would you please look over these solved cases?
MOLECULE	ASSAY VALUE
NC(=O)CNC(=O)[C@H](CCCN=C(N)N)NC(=O)[C@@H]1CCCN1C(=O)[C@@H]1CSSCCC(=O)N[C@@H](Cc2ccc(O)cc2)C(=O)N[C@@H](Cc2ccccc2)C(=O)N[C@@H](CCCCN=C(N)N)C(=O)N[C@@H](CC(N)=O)C(=O)N1 (stereo in doubt)	5.86
C[C@@H]1NC(=O)[C@H](Cc2ccccc2)NC(=O)[C@H](Cc2ccc(O)cc2)NC(=O)CCSSC[C@@H](C(=O)N2CCC[C@H]2C(=O)N[C@@H](CCCN=C(N)N)C(=O)NCC(N)=O)NC(=O)[C@H](CC(N)=O)NC1=O	7.86

Give measured pKi for every item shown.
1. C[C@@H](O)[C@@H]1NC(=O)[C@H](Cc2ccccc2)NC(=O)[C@H](Cc2ccc(O)cc2)NC(=O)CCSSC[C@@H](C(=O)N2CCC[C@H]2C(=O)N[C@@H](CCCN=C(N)N)C(=O)NCC(N)=O)NC(=O)[C@H](CC(N)=O)NC1=O (stereo in doubt)
2. NC(=O)CNC(=O)[C@H](CCCN=C(N)N)NC(=O)[C@@H]1CCCN1C(=O)[C@@H]1CSSCCC(=O)N[C@@H](Cc2ccc(O)cc2)C(=O)N[C@@H](Cc2ccccc2)C(=O)N[C@@H](Cc2ccccc2)C(=O)N[C@@H](CC(N)=O)C(=O)N1 (stereo in doubt)

*A*
8.82
5.97

* * *

Kindly state pKi for each of the entries shown.
SUBJECT OF TEST: Vasopressin V2 receptor (Homo sapiens, UniProt P30518)
TEST PROTOCOL: Binding affinity against human vasopressin V2 receptor was determined by using plasma membranes from CHO cells stably transfected with VP/OT receptors
Bridge positions count the residues as written; N and C are the ends. Square brackets hold non-standard residues; d marks the D form. Peptide text beside a SMILES is read from it. Mpa = O=C(O)CCS
Numbers only, as −log10 of the molar value.

COMPOUND	pKi
NC(=O)CNC(=O)[C@H](CCCN=C(N)N)NC(=O)[C@@H]1CCCN1C(=O)[C@@H]1CSSCCC(=O)N[C@@H](Cc2ccc(O)cc2)C(=O)N[C@@H](Cc2ccccc2)C(=O)N[C@@H](CC(N)=O)C(=O)N[C@@H](CC(N)=O)C(=O)N1 (stereo in doubt)	7.30

For each of the compounds below, note its pKi.
1. CCC[C@@H]1NC(=O)[C@H](Cc2ccccc2)NC(=O)[C@H](Cc2ccc(O)cc2)NC(=O)CCSSC[C@@H](C(=O)N2CCC[C@H]2C(=O)N[C@@H](CCCN=C(N)N)C(=O)NCC(N)=O)NC(=O)[C@H](CC(N)=O)NC1=O (stereo in doubt)
2. CC(C)[C@@H]1NC(=O)[C@H](Cc2ccccc2)NC(=O)[C@H](Cc2ccc(O)cc2)NC(=O)CCSSC[C@@H](C(=O)N2CCC[C@H]2C(=O)N[C@@H](CCCN=C(N)N)C(=O)NCC(N)=O)NC(=O)[C@H](CC(N)=O)NC1=O ([Mpa]YFVNCPRG-NH2; disulfide 1-6)
3. NC(=O)CNC(=O)[C@H](CCCN=C(N)N)NC(=O)[C@@H]1CCCN1C(=O)[C@@H]1CSSCCC(=O)N[C@@H](Cc2ccc(O)cc2)C(=O)N[C@@H](Cc2ccccc2)C(=O)N[C@@H](CO)C(=O)N[C@@H](CC(N)=O)C(=O)N1 (stereo in doubt)

*A*
7.62
8.92
7.61
